Numbers sourced from the supplement of paper PMC12042874.

experiment: amyloid nucleation score (Sup35N fusion, yeast selection) (log enrichment); library NNK2; higher = more nucleation; inactive = no reads after selection;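 note: zero at mode of non-aggregating sequences after 7 days selection at 30°C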
Hi there, I'd appreciate the recorded amyloid nucleation score for every entry that follows.
Numbers only.

{"SUBSTANCE": "VWYIALLQCQVRITYKGRVR", "amyloid nucleation score": 5.43}
{"SUBSTANCE": "SSTIITSLTHFCSTGDWEVV", "amyloid nucleation score": -0.434}

Working through the 4 substances below one at a time, give amyloid nucleation score for each.
1. ICTALGGWWSKEVMSADMFL
2. SICASWNRINGIVTKLGWSE
3. VVVLFIEVLNCYLRGKVKCM
4. RFDINHCIKRCRFGRLVAEI

1: 0.811; 2: -0.739; 3: -0.802; 4: 3.12

----------
assay: amyloid nucleation score (Sup35N fusion, yeast selection) (log enrichment); library NNK1; higher = more nucleation; inactive = no reads after selection
PROPERTY NAME: amyloid nucleation score
Numbers only.

{"SUBSTANCE": "HNKVATMW", "amyloid nucleation score": 1.46}
{"SUBSTANCE": "NSMSNF", "amyloid nucleation score": -1.08}
{"SUBSTANCE": "TQFEFFWVPKRHSMVHNCMN", "amyloid nucleation score": -0.337}
{"SUBSTANCE": "HVNFNKGRMGGADSAVRCWW", "amyloid nucleation score": -1.52}
{"SUBSTANCE": "CCGCWYIITKPYSNKVRKCA", "amyloid nucleation score": 0.265}
{"SUBSTANCE": "RGAQLIRRSFKTVAGLGFIM", "amyloid nucleation score": -0.767}
{"SUBSTANCE": "PSNPFHCVMKARKSLNGIDR", "amyloid nucleation score": -0.09}
{"SUBSTANCE": "CIRVSIVID", "amyloid nucleation score": 0.215}

Working through the 5 substances below one at a time, give amyloid nucleation score for each.
1. SLHCLMFVCSFRVSFEDWGE
2. CIVVMGSVAYHGRFYFVDVE
3. YRGKRDKVVGSMMCMWRT
4. PSVTTS
5. WKVKLNGIG

[4.77, 1.43, 0.518, -0.482, 0.341]

Working through the 2 substances below one at a time, give amyloid nucleation score for each.
1. SPKSLLKRLWEYARKNTVML
2. NGYRNMSRREQTCLR

1. 0.151
2. -0.055

Working through the 4 substances below one at a time, give amyloid nucleation score for each.
1. STYTALIFLHRSVFDLPSVQ
2. YEQVNIRNG
3. SVPDVVSYTKDTVVFNFGFT
4. ESFGRTISVTELSHMT

0.787
0.138
3.31
0.487

----------
experiment: amyloid nucleation score (Sup35N fusion, yeast selection) (log enrichment); library NNK1; higher = more nucleation; inactive = no reads after selection
Given measured amyloid nucleation score, output TRUE if it is greater than or equal to 0.04 and FALSE if not.

Field: example entries. Status: answers known.
{"SUBSTANCE": "YCYYYVNTCVV", "CATEGORY": "TRUE"}
{"SUBSTANCE": "SMKWSLYLQCRIMYIQTDSR", "CATEGORY": "TRUE"}
{"SUBSTANCE": "YRNLGGLLGIELINIMLLLW", "CATEGORY": "FALSE"}
{"SUBSTANCE": "SYEHVGKPCSCGYGVEI", "CATEGORY": "TRUE"}

Decide: is the reported value of amyloid nucleation score for `LRTLPHYNV` equal to or greater than 0.04? TRUE

Decide: is the reported value of amyloid nucleation score for `SHQVVGGLLTYSVWCKCLGC` equal to or greater than 0.04? TRUE

Decide: is the reported value of amyloid nucleation score for `RCVIDDKLWGISLRGPMMGV` equal to or greater than 0.04? FALSE

Decide: is the reported value of amyloid nucleation score for `FVKVAPANKGISGKRDLCKL` equal to or greater than 0.04? TRUE

Decide: is the reported value of amyloid nucleation score for `FLTIYGLNPSDYVGKVRQRD` equal to or greater than 0.04? TRUE

Decide: is the reported value of amyloid nucleation score for `SVELGSGLMMWGTNSKLTVV` equal to or greater than 0.04? TRUE

Decide: is the reported value of amyloid nucleation score for `HRLKTYIMVSFIYRADAVGI` equal to or greater than 0.04? TRUE

Decide: is the reported value of amyloid nucleation score for `CVVRVWVYRGGKYVYLEKAP` equal to or greater than 0.04? FALSE

----------
experiment: amyloid nucleation score (Sup35N fusion, yeast selection) (log enrichment); library NNK1; higher = more nucleation; inactive = no reads after selection
Entries are sorted into classes by amyloid nucleation score as follows: low range (below -0.2), mid range (-0.2 to below 0.1), high range (0.1 or more)

Field: example entries. Status: answers known.
{"SUBSTANCE": "NNNESEWMRGFSLKEGPTQE", "CATEGORY": "high range"}
{"SUBSTANCE": "CCSTSADIHSARNDVWSYSE", "CATEGORY": "low range"}
{"SUBSTANCE": "SMGQHHMGGWVYGRKAEKLS", "CATEGORY": "mid range"}
{"SUBSTANCE": "LYYIRVFRNSI", "CATEGORY": "low range"}
{"SUBSTANCE": "WADNNTSH", "CATEGORY": "mid range"}

Class? Entry: `ACSPGTVVKDITDTSK` high range

Class? Entry: `IFSPVSCDMVTDGMGTSCWY` high range

Class? Entry: `VNFFLFRQCKGSFAWNHTVA` high range

Class? Entry: `ITMYANMNSGQFTMLESMPD` low range

----------
test: amyloid nucleation score (Sup35N fusion, yeast selection) (log enrichment); library NNK3; higher = more nucleation; inactive = no reads after selection
PROPERTY NAME: amyloid nucleation score

Answered cases to consult:
{"SUBSTANCE": "GCNREGTYSRPVLTATNGG", "amyloid nucleation score": -0.152}
{"SUBSTANCE": "VMKHHALGLEEWPQYTSYAW", "amyloid nucleation score": "inactive"}
{"SUBSTANCE": "PVGHSSMSLYRGR", "amyloid nucleation score": "inactive"}
{"SUBSTANCE": "VKFIYRLEQNEDSAQNSRMG", "amyloid nucleation score": "inactive"}
{"SUBSTANCE": "NRTCNDLMTFYSWGSSR", "amyloid nucleation score": "inactive"}

Working through the 4 substances below one at a time, give amyloid nucleation score for each.
1. CVFRWMLFSASEYDGRILKW
2. LYLGLFVSWCSLKSTAWFGK
3. FLPRFGNHLTIRQKVRRTSG
4. VGKFRLMIHVTSHYGFCDLF

1. inactive
2. inactive
3. inactive
4. inactive

Working through the 7 substances below one at a time, give amyloid nucleation score for each.
1. ETYKITLRTCLLATAGLREF
2. VFEAAALVCNCGTWDRGLND
3. QPCDHWHEDLNVCVVVIYAG
4. RMYWAV
5. VRNWTDD
6. WNFNRVYHFLTIEMF
7. LQFDYLMIYLVQFSVLWVCL

1: inactive; 2: 1.79; 3: inactive; 4: 1.02; 5: inactive; 6: inactive; 7: inactive

----------
experiment: amyloid nucleation score (Sup35N fusion, yeast selection) (log enrichment); library NNK1; higher = more nucleation; inactive = no reads after selection
Hi there, I'd appreciate the recorded amyloid nucleation score for every entry that follows.
Numbers only.

Answered cases to consult:
{"SUBSTANCE": "HFFDCHNSIEVSLISSCVCV", "amyloid nucleation score": 3.97}
{"SUBSTANCE": "SNMTSRYYNCMVTWVRILVR", "amyloid nucleation score": 1.19}
{"SUBSTANCE": "LVHSFMW", "amyloid nucleation score": 0.876}
{"SUBSTANCE": "LLRVTEYLIIRPCSVFVINR", "amyloid nucleation score": -0.459}
{"SUBSTANCE": "KCAWNQVNDSNLVAYRASC", "amyloid nucleation score": 5.13}

Working through the 3 substances below one at a time, give amyloid nucleation score for each.
1. CSGNLVMVLSAACAKVGYLV
2. SYVVETQFSSHFSVLWDLMF
3. LWGWGFSSEANPIGGRGILN

1: -1.48; 2: -1.49; 3: 0.277

----------
assay: amyloid nucleation score (Sup35N fusion, yeast selection) (log enrichment); library NNK3; higher = more nucleation; inactive = no reads after selection
Given measured amyloid nucleation score, output 1 if it is greater than or equal to 0.7 and 0 if not.

Field: example entries. Status: answers known.
{"SUBSTANCE": "RFSWWRW", "CATEGORY": 1}
{"SUBSTANCE": "YIGTYLLMSYGDSRPRKEMR", "CATEGORY": 1}

Decide: is the reported value of amyloid nucleation score for `CKMRVILKFIKNL` equal to or greater than 0.7? 0

Decide: is the reported value of amyloid nucleation score for `IVVQSNHAYTLVRTDSLVWM` equal to or greater than 0.7? 1

Decide: is the reported value of amyloid nucleation score for `RIYKNRSSSGILLNERFPGL` equal to or greater than 0.7? 0

Decide: is the reported value of amyloid nucleation score for `VNLNKGLRWNYFGDDMKPHR` equal to or greater than 0.7? 1

Decide: is the reported value of amyloid nucleation score for `PGSYGHGGWNTEFGCQVAIW` equal to or greater than 0.7? 0

Decide: is the reported value of amyloid nucleation score for `GSFMDHKTR` equal to or greater than 0.7? 0

Decide: is the reported value of amyloid nucleation score for `TLVCEDIVYRDLLITSFLYS` equal to or greater than 0.7? 0

Decide: is the reported value of amyloid nucleation score for `VWVTVRCLNYRPSYMPYRTR` equal to or greater than 0.7? 0

Decide: is the reported value of amyloid nucleation score for `CFLAENILFSN` equal to or greater than 0.7? 0

Decide: is the reported value of amyloid nucleation score for `ITYKGLIWMSQGHVACRSRM` equal to or greater than 0.7? 0

Decide: is the reported value of amyloid nucleation score for `LITKWKWEFANTQWRSGQKG` equal to or greater than 0.7? 1

Decide: is the reported value of amyloid nucleation score for `CGDAPRQVVVGPRYKRSMES` equal to or greater than 0.7? 0
